System: SW 1271 complex tumor spheroid viability
Test Name: Anticancer human tumor SW 1271 cell line growth inhibition;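 further: spheroids exposed to agents for seven days before readout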
Experimental Parameters: curve of first compound; second compound 94.9 pM
Below: a set of entries, each annotated with reported IC50.
Give the value, in units of nM, as a plain number.

INSERT INTO measurements (molecule, display_unit, readout_value) VALUES
  ('Cc1cc(C)c(CNC(=O)c2cc(-c3ccc(CN4CCOCC4)cc3)cc3c2cnn3C2CCCC2)c(=O)[nH]1 + COc1cc2c(cc1O)CCNC21CSC2c3c(OC(C)=O)c(C)c4c(c3C(COC1=O)N1C(O)C3Cc5cc(C)c(OC)c(O)c5C(C21)N3C)OCO4', 'nM', 987),
  ('O=C(c1cc(Cc2n[nH]c(=O)c3ccccc23)ccc1F)N1CCN(C(=O)C2CC2)CC1 + COc1cc2c(cc1O)CCNC21CSC2c3c(OC(C)=O)c(C)c4c(c3C(COC1=O)N1C(O)C3Cc5cc(C)c(OC)c(O)c5C(C21)N3C)OCO4', 'nM', 206);

Find IC50 (SW 1271 complex tumor spheroid viability) for the entry CNCc1ccc(-c2cc(-c3nc(-c4ccc(S(=O)(=O)C(C)C)cc4)cnc3N)on2)cc1 + COc1cc2c(cc1O)CCNC21CSC2c3c(OC(C)=O)c(C)c4c(c3C(COC1=O)N1C(O)C3Cc5cc(C)c(OC)c(O)c5C(C21)N3C)OCO4 26.6
